Target: USP30 (Homo sapiens (Human), UniProt Q70CQ3)
Sequence (Q70CQ3 whole entry): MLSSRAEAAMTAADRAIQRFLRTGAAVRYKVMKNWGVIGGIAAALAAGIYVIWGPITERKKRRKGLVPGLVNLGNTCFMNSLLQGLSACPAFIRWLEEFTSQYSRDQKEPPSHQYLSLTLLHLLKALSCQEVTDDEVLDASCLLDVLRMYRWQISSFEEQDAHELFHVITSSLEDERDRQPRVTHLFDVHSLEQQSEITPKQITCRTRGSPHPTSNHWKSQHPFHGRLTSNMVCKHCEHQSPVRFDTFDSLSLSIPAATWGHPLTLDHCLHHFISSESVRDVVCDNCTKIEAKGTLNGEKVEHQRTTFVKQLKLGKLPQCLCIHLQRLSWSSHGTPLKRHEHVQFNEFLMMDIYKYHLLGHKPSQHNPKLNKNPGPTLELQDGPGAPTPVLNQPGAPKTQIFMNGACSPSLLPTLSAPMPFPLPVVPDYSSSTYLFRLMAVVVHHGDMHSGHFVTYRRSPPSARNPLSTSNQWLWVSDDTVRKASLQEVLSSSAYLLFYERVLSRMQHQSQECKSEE
Assay: Dundee MALDI-TOF mass spectrometry assay (IC50)
Type: biochemical
Conditions: USP30 25 ng/μl, K48-linked diubiquitin 5.6 μM, avg, read-out: Dundee IC50 μM (avg in vitro MS assay)
IC50 listing for selected compounds.

Take a look at these entries with their results.
>>> obsvalue("O=C(N[C@@H](Cc1ccccc1)C(=O)Nc1cccc2c(S(=O)(=O)NC3COC3)cccc12)C1CCCCC1")
"0.05 to 1 µM"
>>> obsvalue("O=C(N[C@@H](Cc1ccccc1)C(=O)Nc1ccc(S(=O)(=O)NCC2CC2)cc1)c1ccc(F)cc1")
"< 0.05 µM"
>>> obsvalue("O=C(N[C@@H](Cc1ccccc1)C(=O)Nc1ccc(S(=O)(=O)NC2CCC2)cc1)c1ccc(F)cn1")
"0.05 to 1 µM"
>>> obsvalue("CC(C)(C)NS(=O)(=O)c1ccc(NC[C@@H](O)[C@H](Cc2ccccc2)NC(=O)c2ccc(F)cc2)cc1")
"1 to 10 µM"
>>> obsvalue("CC(C)(C)NS(=O)(=O)c1ccc(NC(=O)[C@H](Cc2ccccc2)NC(=O)c2cccnc2)cc1")
"0.05 to 1 µM"
>>> obsvalue("CC[C@H](C)NS(=O)(=O)c1ccc(NC(=O)[C@H](Cc2ccccc2)NC(=O)c2ccc(F)cc2)cc1")
"< 0.05 µM"

IC50 reading for `CC(C)(CF)NS(=O)(=O)c1ccc(NC(=O)[C@H](Cc2ccccc2)NC(=O)c2ccc(F)cc2)cc1` : < 0.05 µM

get_value(item= `COCC(C)(C)NS(=O)(=O)c1ccc(NC(=O)[C@H](Cc2ccccc2)NC(=O)c2ccc(F)cc2)cc1` , readout=IC50) returns < 0.05 µM
